System: MCF7
procedure-summary: SRB antiproliferative assay MCF7
Assay type: cell-based
measurement-parameters: Homo sapiens; MCF7 (Breast), 5% FCS/5 day incubation; read-out: Test Compound IC50
pIC50: −log10 of the molar value.
Criterion: pIC50 meeting or surpassing 6. Met: yes. Not met: no.

Answer whether pIC50 of COc1ccc(C(=O)N2Cc3ccccc3C(c3ccccc3Cl)c3ccccc32)cc1 (stereo not drawn) [Compound 27] is greater than or equal to 6.
yes

Ok, now COc1ccc(C(=O)N2Cc3ccccc3C(c3ccccc3)c3ccccc32)cc1 (stereo not drawn) [Compound 21]
no

Ok, now O=C(c1ccc([N+](=O)[O-])cc1)N1Cc2ccccc2C(c2ccccc2)c2ccccc21 (stereo not drawn) [Compound 20]
no

Ok, now O=C(c1ccc(Cl)cc1)N1Cc2ccccc2C(c2ccccc2)c2ccccc21 (stereo not drawn) [Compound 13]
no

Ok, now O=C(Nc1ccc([N+](=O)[O-])cc1)N1Cc2ccccc2C(c2ccccc2Cl)c2ccccc21 (stereo not drawn) [Compound 35]
no

Ok, now O=C(c1ccc([N+](=O)[O-])cc1)N1Cc2ccccc2C(c2ccccc2Cl)c2ccccc21 (stereo not drawn) [Compound 28]
yes

Ok, now CNc1ccc(C(=O)N2Cc3ccccc3C(c3ccccc3Cl)c3ccccc32)cc1 (stereo not drawn) [Compound 33]
no

Ok, now COc1ccc2c(c1)CN(C(=O)c1ccc(Cl)cc1)c1ccc(Cl)cc1C2c1ccccc1Cl (stereo not drawn) [Compound 23]
no

Ok, now O=C(c1ccccc1)N1Cc2ccccc2C(c2ccccc2)c2ccccc21 (stereo not drawn) [Compound 16]
no

Ok, now COc1cccc(C(=O)N2Cc3ccccc3C(c3ccccc3)c3ccccc32)c1 (stereo not drawn) [Compound 17]
no

Ok, now Cc1ccc(C(=O)N2Cc3ccccc3C(c3ccccc3)c3ccccc32)cc1 (stereo not drawn) [Compound 22]
no

Ok, now Nc1ccc(C(=O)N2Cc3ccccc3C(c3ccccc3Cl)c3ccccc32)cc1 (stereo not drawn) [Compound 34]
no

----------
Exercise: state measured pIC50 for each of the molecules provided.
System: SK-OV-3
procedure-summary: SRB antiproliferative assay SK-OV-3
Format: cell-based
measurement-parameters: Homo sapiens; SK-OV-3 (Ovary), 5% FCS/5 day incubation; read-out: Test Compound IC50
pIC50: −log10 of the molar value.

Any idea what pIC50 was measured for COc1ccc(C(=O)N2Cc3ccccc3C(c3ccccc3Cl)c3ccccc32)cc1 (centres unmarked) ?
< 6.00

Ok, now O=C(c1ccc([N+](=O)[O-])cc1)N1Cc2ccccc2C(c2ccccc2)c2ccccc21 (centres unmarked)
< 6.00

Ok, now COc1cccc2c1C(c1ccccc1Cl)c1cc(Cl)ccc1N(C(=O)c1ccc([N+](=O)[O-])cc1)C2 (centres unmarked)
6.22

Ok, now COc1ccc2c(c1)CN(C(=O)c1ccc([N+](=O)[O-])cc1)c1ccc(Cl)cc1C2c1ccccc1Cl (centres unmarked)
< 6.00

Ok, now O=C(c1ccc([N+](=O)[O-])cc1)N1Cc2ccccc2C(c2ccccc2Cl)c2ccccc21 (centres unmarked)
< 6.00

----------
Tested on: MCF7
procedure-summary: SRB antiproliferative assay MCF7
Format: cell-based
measurement-parameters: Homo sapiens; MCF7, 5% FCS/3 days; read-out: Test Compound IC50 Value in Cell Lines
Exercise: state measured pIC50 for each of the molecules provided.
Friendly reminder that pIC50 comes from taking -log10 of the concentration in mol/L.

Any idea what pIC50 was measured for O=C(Oc1ccccc1)N1Cc2ccccc2C(c2ccccc2Cl)c2ccccc21 (stereo not shown) [Compound 26] ?
5.23

Ok, now CNc1ccc(C(=O)N2Cc3ccccc3C(c3ccccc3Cl)c3ccccc32)cc1 (stereo not shown) [Compound 33]
5.27

Ok, now COc1ccc2c(c1)CN(C(=O)c1ccc([N+](=O)[O-])cc1)c1ccc(Cl)cc1C2c1ccccc1Cl (stereo not shown) [Compound 30]
5.80

Ok, now O=C(Nc1ccccc1)N1Cc2ccccc2C(c2ccccc2Cl)c2ccccc21 (stereo not shown) [Compound 32]
5.27

Ok, now O=C(c1ccc([N+](=O)[O-])cc1)N1Cc2ccccc2C(c2ccccc2Cl)c2ccccc21 (stereo not shown) [Compound 28]
5.68
